B1: HDV Ribozyme (parent)
chain: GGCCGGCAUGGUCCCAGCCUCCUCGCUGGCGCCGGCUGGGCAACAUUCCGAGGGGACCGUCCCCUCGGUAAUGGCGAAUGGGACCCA

# Variants of: B1
# Method: self-cleavage, relative activity (ratio to wild type); higher = more cleavage; co-transcriptional
Readout Label: self-cleavage

These solved cases illustrate the format of a correct answer.
Monomer Sequence	self-cleavage
GACCGGCAUGGUCCCAGCCUCCUCGCUGGCGCCGGCUGGGCAACAUUCCGAGGGGACCGUCACCUCGGUAAUGGCGAAUGGGACCCA [G2A C62A]	0.137
GGCCGGCAUGGUCCCAGCCCCCUCGCUGGCGCCGGCUGGGCAACAUUCCGAGGGGACCGUCCCCUCGGUAAUGGCGAAUGGGACUCA [U20C C85U]	0.0475
GGCCGGCAUGGUCCCAGCCUCCUCGCUGGCGCCGGCUGGGCAACAUCCCGAGGGGACAGUCCCCUCGGUAAUGGCGAAUGGGACCCA [U47C C58A]	0.779

# input Name the reported self-cleavage value associated with the variant GGCCGGCAUGGUCCCAGCCUCCUCGCUGGCGCCGGCUGGGCAAUAUUCCGAGGGGACCGUCCCCUCGGUAUUGGCGAAUGGGACCCA [C44U A71U]
# output 0.972

# input Name the reported self-cleavage value associated with the variant GGCCGGCAUGGUCCCAGCCUCCUCGCUGGCGCCGGCUGGGCAAUAUUCCGAGGGGACCGUCCCCUCGGUAAUUGCGAAUGGGACCCA [C44U G73U]
# output 0.172

# input Name the reported self-cleavage value associated with the variant GGCCGGCAUGGUCCCAGCCGCCUCGCUGGCGCCGGCUGGGCAACAUCCCGAGGGGACCGUCCCCUCGGUAAUGGCGAAUGGGACCCA [U20G U47C]
# output 0.133

# input Name the reported self-cleavage value associated with the variant GGCCGGCAUGGUCCCACCCUCCGCGCUGGCGCCGGCUGGGCAACAUUCCGAGGGGACCGUCCCCUCGGUAAUGGCGAAUGGGACCCA [G17C U23G]
# output 0.123

# input Name the reported self-cleavage value associated with the variant GGCCGGCAUGGUCCCAGCCUCCUCGCUGGCGCCGGCUGGGCAACAUUCCGAGGGGACCGUCCCCGCGGUAAUCGCGAAUGGGACCCA [U65G G73C]
# output 0.289

# input Name the reported self-cleavage value associated with the variant GGCCAGCAUGGUCCCAGCCUCCUCGCUGGCGCCGGCUGGGCAACAUUCCGAGGGGCCCGUCCCCUCGGUAAUGGCGAAUGGGACCCA [G5A A56C]
# output 0.107

# input Name the reported self-cleavage value associated with the variant GGCCGGCAUGGUCCCAGCCUCCUCGCUGGCGCCGGCUGGGCAACAUUCCGAGGGGACCGUCCCCUCGGUAUUGGCGAAUGGGAUCCA [A71U C84U]
# output 0.475

# input Name the reported self-cleavage value associated with the variant GGCCGGCAUGGUCCCAGCCUCCUCGCUGGCGCCGGCUGGGCAACAUUCCGAGGGGAACGUUCCCUCGGUAAUGGCGAAUGGGACCCA [C57A C61U]
# output 1.14

# input Name the reported self-cleavage value associated with the variant GGCCGGCAUGGUCCCAGUCUCCUCGCUGGAGCCGGCUGGGCAACAUUCCGAGGGGACCGUCCCCUCGGUAAUGGCGAAUGGGACCCA [C18U C30A]
# output 0.156

# input Name the reported self-cleavage value associated with the variant GGCCGGCAUGGUCCCAGCCUCCUCGCUGGCGCCGGCUGGGCAAUAUUCCGAGGGGAUCGUCCCCUCGGUAAUGGCGAAUGGGACCCA [C44U C57U]
# output 0.704

# input Name the reported self-cleavage value associated with the variant GGCCGGCUUGGUCCCAGCCUCCUCGCUGGCGCCGGCUGGGCAACAUUCCGAGGUGACCGUCCCCUCGGUAAUGGCGAAUGGGACCCA [A8U G54U]
# output 0.574

# input Name the reported self-cleavage value associated with the variant GGCCGGCAUGGUCCCAGCCUCCUCGCGGGCGCCGGCUGGGCAACAUUCCGACGGGACCGUCCCCUCGGUAAUGGCGAAUGGGACCCA [U27G G52C]
# output 1.02

# input Name the reported self-cleavage value associated with the variant GGCCGGCAUGGUCCCAGCCUCCCCGCUGGCGCCGGCUGGGCAACAUUCCCAGGGGACCGUCCCCUCGGUAAUGGCGAAUGGGACCCA [U23C G50C]
# output 0.864

# input Name the reported self-cleavage value associated with the variant GGCCGGCAUGGUCCCAGCAUCCUCGCUGGCGCCGGCUGGGCAACUUUCCGAGGGGACCGUCCCCUCGGUAAUGGCGAAUGGGACCCA [C19A A45U]
# output 0.199

# input Name the reported self-cleavage value associated with the variant GGCCGGCAUGGUCCCAGCCUCCUCGCUGGCGCCGGCUGCGCAACAUUCCGAGGGGACCGUCCCCUCGGUAAUGGCGCAUGGGACCCA [G39C A77C]
# output 0.0519

# input Name the reported self-cleavage value associated with the variant GGGCGGCAUGGUCCCAGCCUCCUCGCUGGCGCCGGCUGGGCAUCAUUCCGAGGGGACCGUCCCCUCGGUAAUGGCGAAUGGGACCCA [C3G A43U]
# output 0.233

# input Name the reported self-cleavage value associated with the variant GGCCGGCAUGGUCCCAGCCUCCUCGCAGGCGCCGGCUGGGCAACAUUCCGAGGGGACCGUACCCUCGGUAAUGGCGAAUGGGACCCA [U27A C61A]
# output 0.906

# input Name the reported self-cleavage value associated with the variant GGCCGGAAUGGUCCCAGCCUCCUCGCUGGCGCCGGCUGGGCAACAUUCCAAGGGGACCGUCCCCUCGGUAAUGGCGAAUGGGACCCA [C7A G50A]
# output 0.527

# input Name the reported self-cleavage value associated with the variant GGCCGGCAUGGUCCCAGCCUCCUCGCUGGCGGCGGCUGGGCAACAUUCCGAGGGGACCGUCCCCUCGGUAAUGCCGAAUGGGACCCA [C32G G74C]
# output 0.166
